# TARGET OR TEST SYSTEM: Recombinant TDO (Homo sapiens)
# Construct: His tag (C); made in house; host or cells: E. coli
# Sequence (P48775 whole entry): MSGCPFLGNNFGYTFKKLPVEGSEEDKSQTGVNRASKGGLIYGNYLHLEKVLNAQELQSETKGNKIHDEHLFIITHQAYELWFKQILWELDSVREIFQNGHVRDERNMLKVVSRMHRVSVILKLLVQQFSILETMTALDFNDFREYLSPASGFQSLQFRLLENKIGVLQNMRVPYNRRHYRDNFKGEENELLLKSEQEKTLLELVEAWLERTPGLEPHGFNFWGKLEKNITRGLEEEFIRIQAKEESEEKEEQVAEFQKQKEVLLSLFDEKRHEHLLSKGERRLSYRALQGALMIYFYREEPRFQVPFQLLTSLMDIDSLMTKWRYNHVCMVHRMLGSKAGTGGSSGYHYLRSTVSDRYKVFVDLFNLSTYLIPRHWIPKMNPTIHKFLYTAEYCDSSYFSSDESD
# METHOD DESCRIPTION: TDO enzymatic assay
# Assay type: biochemical
# EXPERIMENTAL CONTEXT: selectivity examples; read-out: enzymatic IC50 value to TDO
pIC50: −log10 of the molar value.
METRIC: pIC50

[
  {
    "MOLECULE": "OC(CC1CCCCC1)c1c(Cl)ccc2cncn12 (stereo not drawn)",
    "DATA VALUE": 5.01
  }
]

A: OC(CC1CCCCC1)c1c(Br)ccc2cncn12 (stereo not drawn)
B: OC(CC1CCCCC1)c1c(Cl)ccn2cncc12 (stereo not drawn)
Smaller pIC50 value? Options are A and B Answer format: the label of the selected item.
A
(A: 4.92, B: 5.31)

---

# TARGET OR TEST SYSTEM: Recombinant IDO1 (Homo sapiens, UniProt P14902)
# Construct: His tag (N); made in house; host or cells: E. coli
# Sequence (P14902 whole entry): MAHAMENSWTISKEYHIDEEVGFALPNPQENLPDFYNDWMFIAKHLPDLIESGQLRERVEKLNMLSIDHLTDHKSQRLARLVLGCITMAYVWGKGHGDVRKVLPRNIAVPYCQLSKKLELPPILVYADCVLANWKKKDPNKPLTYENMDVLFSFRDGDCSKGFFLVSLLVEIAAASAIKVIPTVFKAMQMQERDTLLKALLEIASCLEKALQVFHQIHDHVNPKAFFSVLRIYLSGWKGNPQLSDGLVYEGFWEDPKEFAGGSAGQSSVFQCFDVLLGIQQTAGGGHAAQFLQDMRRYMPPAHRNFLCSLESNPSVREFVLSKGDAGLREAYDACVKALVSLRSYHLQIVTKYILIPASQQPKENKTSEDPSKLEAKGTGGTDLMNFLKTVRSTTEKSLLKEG
# METHOD DESCRIPTION: IDO1 enzymatic assay
# Assay type: biochemical
# EXPERIMENTAL CONTEXT: Table 1, 5-substituted imidazo[1,5-a]pyridines; 50 nM IDO1, 1.3 mM D-tryptophan; read-out: Enzyme IC50 (nM) IDO1
METRIC: IC50 (nM)

Completed entries (count: 3):
[
  {
    "COMPOUND": "OC(c1c(Cl)c(Cl)c(Cl)c2cncn12)C1CCCCC1 (centres unmarked)",
    "TARGET OR TEST SYSTEM": "Recombinant IDO1 (Homo sapiens, UniProt P14902)",
    "METRIC": "IC50",
    "DATA VALUE": 430
  },
  {
    "COMPOUND": "OC(c1c(Cl)ccc2cncn12)C1CCCCC1 (single isomer, unassigned) [Example A116b]",
    "TARGET OR TEST SYSTEM": "Recombinant IDO1 (Homo sapiens, UniProt P14902)",
    "METRIC": "IC50",
    "DATA VALUE": 4800
  },
  {
    "COMPOUND": "OC(c1c(Cl)c(Cl)cc2cncn12)C1CCCCC1 (single isomer, unassigned) [Example A143a]",
    "TARGET OR TEST SYSTEM": "Recombinant IDO1 (Homo sapiens, UniProt P14902)",
    "METRIC": "IC50",
    "DATA VALUE": 20
  }
]

A: OC(c1c(Br)ccc2cncn12)C1CCCCC1 (centres unmarked) [Example A118]
B: CC(C)(C)C(O)c1cccc2cncn12 (centres unmarked)
For the pair A and B , which member has the lower IC50 number? Lab log: write the label of the selected item as the result.
A

---

# TARGET OR TEST SYSTEM: Recombinant IDO1 (Homo sapiens, UniProt P14902)
# Construct: His tag (N); made in house; host or cells: E. coli
# METHOD DESCRIPTION: IDO1 enzymatic assay
# Type: biochemical
# EXPERIMENTAL CONTEXT: Table 1, 5-substituted imidazo[1,5-a]pyridines; 50 nM IDO1, 1.3 mM D-tryptophan; read-out: Enzyme IC50 (nM) IDO1
METRIC: IC50 (nM)

// below: answered compounds
[
  {
    "COMPOUND": "OC(c1cc(C(F)(F)F)cc2cncn12)C1CCCCC1 (single isomer, unassigned) [Example A109b]",
    "UNIT DESCRIPTOR": "nM",
    "DATA VALUE": 1400
  },
  {
    "COMPOUND": "C#Cc1ccc2cncn2c1C(O)C1CCCCC1 (stereo not shown)",
    "UNIT DESCRIPTOR": "nM",
    "DATA VALUE": 19
  },
  {
    "COMPOUND": "c1cc(CC2CCCCC2)n2cncc2c1",
    "UNIT DESCRIPTOR": "nM",
    "DATA VALUE": 540
  },
  {
    "COMPOUND": "COc1ccc2cncn2c1C(O)C1CCCCC1 (stereo not shown)",
    "UNIT DESCRIPTOR": "nM",
    "DATA VALUE": 28
  },
  {
    "COMPOUND": "OC(CC1CCCCC1)c1c(Cl)c(F)cc2cncn12 (stereo not shown)",
    "UNIT DESCRIPTOR": "nM",
    "DATA VALUE": 33
  }
]

1: OC(CC1CCCCC1)c1c(Cl)c(Cl)cc2cncn12 (stereo not shown) [Example A144]
2: OC(c1cccc2cncn12)C1CCCCC1 (single isomer, unassigned) [Example A001b]
Which of the two items, 1 and 2 , has the greater recorded IC50? Answer = label.
2
(2: 11000 nM, 1: 32 nM)

---

# TARGET OR TEST SYSTEM: cellular IDO1 in HeLa cells (Homo sapiens)
# Construct: endogenous in cells; host or cells: HeLa cells (American Type Tissue Culture Collection), induced with human recombinant IFN-γ
# METHOD DESCRIPTION: HeLa cell-based IDO1 Kyn (kynurenine) production assay
# EXPERIMENTAL CONTEXT: Table 2, 8-substituted imidazo[1,5-a]pyridines, IFN-γ 100 ng/mL, 48 hours
# Procedure: HeLa Cell-Based IDO1 Kyn (Kynurenine) Production Assay: The inhibitory activity of IDO1 inhibitors is determined by using a colorimetric reaction to measure Kyn generated from L-Trp (L-Tryptophon) oxidation by cellular IDO1 in HeLa cells after induction of IDO1 by IFN-γ. Hela cells were obtained from the American Type Tissue Culture Collection and recovered in 10% FBS-containing phenol red-free DMEM medium supplemented with 0.4 mM L-Trp. […]
pEC50: −log10 of the molar value.
METRIC: pEC50

Solved cases below.
[
  {
    "COMPOUND": "OC(c1c(C2CC2)ccn2cncc12)C1C=CCCC1 (stereo not drawn)",
    "TARGET OR TEST SYSTEM": "cellular IDO1 in HeLa cells (Homo sapiens)",
    "pEC50": 5.77
  },
  {
    "COMPOUND": "O[C@H](c1c(C2CC2)ccn2cncc12)C1CC2CCC1C2 (single isomer, unassigned) [Example B122b]",
    "TARGET OR TEST SYSTEM": "cellular IDO1 in HeLa cells (Homo sapiens)",
    "pEC50": 6.53
  },
  {
    "COMPOUND": "CS(=O)(=O)N1CCCC(C(O)c2c(C3CC3)ccn3cncc23)C1 (single isomer, unassigned) [Example B130b]",
    "TARGET OR TEST SYSTEM": "cellular IDO1 in HeLa cells (Homo sapiens)",
    "pEC50": 6.04
  },
  {
    "COMPOUND": "OC(c1c(C2CC2)ccn2cncc12)C1CCC2CC2C1 (stereo not drawn)",
    "TARGET OR TEST SYSTEM": "cellular IDO1 in HeLa cells (Homo sapiens)",
    "pEC50": 6.83
  }
]

a: OC(c1c(C2CC2)ccn2cncc12)C1C2CC3CC(C2)CC1C3 (stereo not drawn)
b: CC(C)(C)c1ccn2cncc2c1C(O)C1CCCCC1 (stereo not drawn)
a or b : whose pEC50 is greater? // caller expects the label of the chosen entry
a

A: OC(CC1CCCCC1)c1c(C2CC2)ccn2cncc12 (stereo not drawn) [Example B110]
B: OC(c1c(I)ccn2cncc12)C1CCCCC1 (stereo not drawn)
Please choose the item with the lower pEC50 value from this pair: A and B In your reply, give the label of the chosen option.
B
(B: 6.24, A: 6.59)

1: OC(CC12CC3CC(CC(C3)C1)C2)c1c(C2CC2)ccn2cncc12 (stereo not drawn)
2: OC(CC1CCCCC1)c1c([C@H]2C[C@H]2F)ccn2cncc12 (mixture of isomers) [Example B127b]
Consider 1 and 2 . Which of these has its pEC50 at a higher number? API: response body contains the label of the selected item.
1
(1: 6.75, 2: 5.95)

---

# TARGET OR TEST SYSTEM: Recombinant IDO1 (Homo sapiens, UniProt P14902)
# Construct: His tag (N); made in house; host or cells: E. coli
# METHOD DESCRIPTION: IDO1 enzymatic assay
# Type: biochemical
# EXPERIMENTAL CONTEXT: Table 2, 8-substituted imidazo[1,5-a]pyridines; 50 nM IDO1, 1.3 mM D-tryptophan; read-out: Enzyme IC50 (nM) IDO1
METRIC: IC50 (nM)

[
  {
    "MOLECULE": "CC(C)c1ccn2cncc2c1C(O)[C@H]1CC[C@H](O)CC1 (single isomer, unassigned) [Example B121b]",
    "UNIT DESCRIPTOR": "nM",
    "IC50": 21000
  }
]

A: OC(c1c(I)ccn2cncc12)C1CCCCC1 (stereo not drawn)
B: OC(c1cc(Cl)cn2cncc12)C1CCCCC1 (stereo not drawn)
Which gives the smaller IC50 number: A or B ? Please reply using the label of the selected record.
A
(A: 69 nM, B: 180 nM)
